system: ATP; test: switch fluorescence ratio, 500 uM ATP over buffer (Cy3 cluster intensity, sum of 5 cycles each) (fold (ratio)); higher = stronger signal-on switching upon ATP binding; sequences stand for … in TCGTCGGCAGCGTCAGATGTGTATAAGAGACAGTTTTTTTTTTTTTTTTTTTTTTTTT…TC; conditions: aptamer strand: ATP DNA aptamer (quencher-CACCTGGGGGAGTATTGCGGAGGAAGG + anchor), 100 nM annealed; ATP concentration: 500 uM;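 note: ATP exposure 15 min at 22 °C before imaging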
measurement-name: switch fluorescence ratio

Worked examples, 4 sequences total:
| seq | switch fluorescence ratio |
| --- | --- |
| TTGTGAGTGT | 1.01 |
| AGGAATGAGG | 0.958 |
| CACCGTTTTC | 1.1 |
| AAGTTATGTA | 1.01 |

# input I'd like to know its switch fluorescence ratio. The sequence in question is GATACTCTTA
# output 1.02

# input Quick one: GGGGGGGCCG
# output 0.993
